A collection of compounds and their measured % Inhibition at 10 μM
Test system: SGK2
Experiment: Inhibition of kinase activity by SGK2 inhibitory compounds, single concentration
Type: biochemical
Settings: 10 μM compound
Report only the number, with the unit % understood.

Consider the worked cases shown below.
| compound | measured_on | % Inhibition at 10 μM, % |
| --- | --- | --- |
| O=c1cc(-c2ccccc2)oc2cc(O)c(O)c(O)c12 | SGK2 | 67 |
| O=C(CSc1nnc(-c2ccncc2)[nH]1)c1ccc(O)c(O)c1 | SGK2 | 68 |
| O=c1oc2cc(Br)c(O)c(Br)c2s1 | SGK2 | 94 |
| Cc1sc(NC(=O)COc2cccc(F)c2)c(C#N)c1C | SGK2 | 67 |
| O=C(Nc1ccc(O)c(-c2nc3ccccc3s2)c1)c1cccc(N2C(=O)CCC2=O)c1 | SGK2 | 74 |

Task: Which % Inhibition at 10 μM is reported for this compound? CCN(CC)c1ccc(C2Nc3cccc4cccc(c34)N2)c(O)c1
Output: 68

Task: Please report the recorded % Inhibition at 10 μM for CCCc1cc2c(cc1N)OCO2 .
Output: 67

Task: Query: % Inhibition at 10 μM; subject: C1=CC2c3cccc4c3N(CC2C1)CC1CC=CC41 (stereo not shown)
Output: 69

Task: Which % Inhibition at 10 μM is listed for O=C(O)C1Nc2ccc(Br)cc2C2C=CCC12 (stereo not shown) ?
Output: 92

Task: Sample CNC(=O)Oc1c(Br)cc2sc(=O)oc2c1Br — what was its % Inhibition at 10 μM?
Output: 72

Task: Fill blank: measured % Inhibition at 10 μM of the compound CCOc1ccc(NC(=O)CSc2ncnc3c2oc2ccccc23)cc1 is ____.
Output: 78

Task: Recorded % Inhibition at 10 μM for O=c1c(-c2cc(O)c(O)c(O)c2)coc2cc(O)c(O)c(O)c12 , please?
Output: 97

Task: # query: % Inhibition at 10 μM of entry CN(C)c1ccc(C2=Nc3cccc4cccc(c34)N2)cc1
Output: 79

* * *

System: SGK2
Experiment: Inhibition of kinase activity by SGK2 inhibitory compounds, single concentration
Type: biochemical
Settings: 10 μM compound
quantity_measured: % Inhibition at 10 μM (%)
Write the value in % as a bare number.

| compound | quantity_measured | measured_number |
| --- | --- | --- |
| O=C(C=Cc1ccco1)c1ccc2c(c1)C1C=CCC1C(c1ccc(Cl)cc1)N2 (stereo not drawn) [LDN-0033450] | % Inhibition at 10 μM | 94 |
| C=C1c2c(Cl)ccc(O)c2C(=O)C2=C(O)C3(O)C(=O)C(C(N)=O)=C(O)C(N(C)C)C3C(O)C12.O=C(O)c1cc(S(=O)(=O)O)ccc1O (stereo not drawn) [LDN-0097423] | % Inhibition at 10 μM | 76 |
| Cc1ccc(C)n1-c1ccc(O)c(C(=O)O)c1 [LDN-0062564] | % Inhibition at 10 μM | 90 |
| O=C(OC1Cc2c(O)cc(O)cc2OC1c1cc(O)c(O)c(O)c1)c1cc(O)c(O)c(O)c1 (stereo not drawn) [LDN-0022369] | % Inhibition at 10 μM | 92 |
| Oc1ccc(Cl)cc1-c1cc(-c2ccco2)n[nH]1 [LDN-0086824] | % Inhibition at 10 μM | 68 |

Now take the following compound into account.
Task: Consider the compound Cc1cc2c3c(c(Br)cc(S(=O)(=O)O)c3n1)C(=O)c1ccccc1-2 [LDN-0042012] and give its measured % Inhibition at 10 μM.
Output: 87
